Kindly state melting point for each of the entries shown.

Guide cases for melting point, answers given:
- compound: "O=C(O)CCC(=O)c1ccc(-c2ccc(C(F)(F)F)cc2)cc1"
  observedValue: "172 to 174 °C"
- compound: "Cc1ccc(S(=O)(=O)c2ccc3c(c2)CCCC3)cc1"
  observedValue: "130 to 132 °C"
- compound: "CCc1nc2c(cnn2CC)c(NC2CCOCC2)c1CNC(=O)c1cccc(C(=O)NCc2ccc(Cl)c(-c3cccc(CN4CCCNCC4)c3)c2)c1"
  observedValue: "116 to 119 °C"
- compound: "CC(Br)CN(CC(C)Br)c1c(C(=O)NCCOP(=O)(O)O)cc([N+](=O)[O-])cc1[N+](=O)[O-] (centres undefined)"
  observedValue: "157 to 161 °C"
- compound: "COc1cc(-c2ccc(NCc3ccccc3)nn2)ccc1OC(F)F"
  observedValue: "136 °C"
- compound: "Cc1c(CNCC(C)(C)O)n(C)c2c(C)c(NC(=O)c3ccc(OC[C@@H]4CCCO4)cc3F)ccc12"
  observedValue: "131 to 132 °C"

Please give melting point for each item listed below.
1. CC(C)(C)[Si](C)(C)Oc1ccc2c(c1)C(=O)c1ccc(O[Si](C)(C)C(C)(C)C)cc1C2=O
2. Cc1cn2ccnc(Cl)c2n1
3. CC(C)(C)OC(=O)NC(CF)C(F)CN1C(=O)c2ccccc2C1=O (centres undefined)

1: 131 to 133 °C; 2: 128 to 130 °C; 3: 152 to 153 °C

###

Give measured melting point for each item. Keep answers brief.

Examples with their reported melting point follow.
- compound: "C#CC(C)NCC(O)COc1ccccc1C=Cc1nnc(C)s1 (configuration not stated)"
  melting point: "143 to 145 °C"
- compound: "O=C(C=Cc1ccco1)Nc1nnn[nH]1"
  melting point: "287 to 289 °C"
- compound: "CCCCCCCCCCCCCCCCSCC(CO)NC(=O)OC(C)(C)C (configuration not stated)"
  melting point: "48 to 50 °C"
- compound: "Cc1cc(Cl)cc(C)c1NC(=O)N(CCC(C)(C)C)Cc1ccc(CC(C)(C)C)cc1"
  melting point: "148 to 150 °C"
- compound: "CCOC(=O)C(NC(=O)N1CCc2cc(S(=O)(=O)N3CCN(c4cccc(Cl)c4)CC3)ccc21)C(C)C (configuration not stated)"
  melting point: "143 to 144 °C"
- compound: "O=C(F)OC12CC3CC(CC(C3)C1)C2"
  melting point: "32 to 33 °C"
- compound: "CNC(=O)N1CCc2nc(N)sc2C1"
  melting point: "202 °C"
- compound: "Nc1c(Cl)cc(I)cc1Cl"
  melting point: "100 to 102 °C"
- compound: "Oc1ccc(CCCCCCc2ccc(O)cc2)cc1"
  melting point: "143 to 144 °C"
- compound: "CCc1nc2c(N)nc3ccccc3c2n1OC(C)C"
  melting point: "242 to 243 °C"

Working through the 2 compounds below one at a time, give melting point for each.
1. CCOC(=O)C(=O)C1C(=O)c2cccc3c2C1CCC3 (configuration not stated)
2. CC(C)(C)OC(=O)N1C(=O)[C@H](O)[C@@H]1C1CCCCC1

["92 to 94 °C", "121 to 122 °C"]

###

Record form. Attribute: melting point. Fill in for each entry.

- compound: "CC1CN(c2cc3c(c(N)c2F)c(=O)c(C(=O)O)cn3C2CC2)CCN1 (centres undefined)"
  melting point: "181 to 183 °C"
- compound: "CC1=CC(O)C(OC(=O)c2ccc([N+](=O)[O-])cc2)C(C)(C)CC1=O (centres undefined)"
  melting point: "148 to 150 °C"
- compound: "CC(=Cc1ccccc1)c1cc2c(cc1Cl)C(C)(C)CCC2(C)C"
  melting point: "114 °C"
- compound: "Nc1ccc(C(=O)N2CCOCC2)cc1OCc1ccc(-c2ccccc2-c2nnnn2C(c2ccccc2)(c2ccccc2)c2ccccc2)cc1"
  melting point: "95 to 105 °C"
- compound: "CCCCCCC(C(=O)N[C@@H](CC(=O)O)C(=O)O)n1cnc2cc(-c3ccccc3-c3nn[nH]n3)ccc21 (some centres undefined)"
  melting point: "190 to 195 °C"
- compound: "CC(C)(C)OC(=O)N1Cc2ccc(COc3cccc4c3CN(C3CCC(=O)NC3=O)C4=O)cc2C1 (centres undefined)"
  melting point: "178 to 180 °C"
- compound: "OC1CSC(Oc2cnc(-c3cccnc3)c(F)c2)C(O)C1O (centres undefined)"
  melting point: "179 °C"
- compound: "CCNC1CN(c2cc3c(cc2F)c(=O)c2c(=O)[nH]sc2n3C2CC2)C1"
  melting point: "231 to 236 °C"

Read the next record carefully.
What value of melting point has been recorded for this entry: O=C(C=C(S)c1ccccc1)Nc1nc2ccccc2s1
168 to 172 °C

###

experimentalReadout: melting point

Example entries begin here.
- compound: "OCc1nnc2ccc(-c3cccc(C(F)(F)F)c3)nn12"
  melting point: "224 to 226 °C"
- compound: "CCOC(=O)c1ccc(C=C2C=CN(CC)c3ccccc32)c([N+](=O)[O-])c1"
  melting point: "100 °C"
- compound: "CSC(C)(C)C(=O)N[C@@H](CS)C(=O)O"
  melting point: "110 to 112 °C"
- compound: "CCCCCCCCCCCCCCCCCCOCC(COC1CCCCO1)NC(C)=O (stereo not given)"
  melting point: "52 to 55 °C"
- compound: "Cc1ccc(C(=O)Nc2nc(=O)c3ccccc3n2C)cc1"
  melting point: "235 to 238 °C"
- compound: "CS(=O)(=O)Nc1cc([C@@H](O)CNC2CCN(c3ccc(S(=O)(=O)N4CC(=O)NC4=O)cc3)CC2)ccc1O"
  melting point: "200 to 202 °C"

Quick request: melting point for each listed item, please.
1. CCOC(=O)C(C)(C)c1cn2nc(NCCCN3CCC(NC(c4ccccc4)c4ccccc4)CC3)ccc2n1
2. NC1=NN(C(=O)NC=NO)C(=O)C1Cc1ccccc1 (stereo not given)
3. O=Cc1c(Cl)cc(O)c(O)c1Cl
4. CCNC(=O)c1ccccc1Nc1nc(Nc2c(OC)ccc3c2CC(=O)N(CC)CC3)ncc1Cl

1. 115 to 117 °C
2. 195 °C
3. 213 to 215 °C
4. 117 to 141 °C

###

Provide the reported melting point of each item.

Field: example entries. Status: answers known.
- compound: "Cc1nn(-c2ccc(F)cc2)cc1C(=O)N(CC(=O)O)c1ccc(OCC(C)(C)C)c(C#N)c1"
  melting point: "157 °C"
- compound: "Cc1cc(C(=O)Nc2cccc(C3CN4CCSC4=N3)c2)n(C)n1 (stereo not given)"
  melting point: "163 to 164 °C"
- compound: "CCC(O)(c1cc(F)cc(Sc2ccc3c(-c4ccoc4)cc(C#N)cc3c2)c1)c1nccs1 (stereo not given)"
  melting point: "120 to 122 °C"
- compound: "O=[N+]([O-])c1ccc(Oc2ccc3c(c2)OCCC3Cl)cc1 (stereo not given)"
  melting point: "67 to 68 °C"
- compound: "O=C(O)CCCSc1ccc(C(=O)O)cn1"
  melting point: "185 °C"

Could you tell me melting point for each of these compounds? They are listed below.
1. Fc1ccc(-n2ccc3cc(-c4ccccn4)ccc32)cc1
2. CC(C)(C)CC(=O)c1ccc2c(c1)C=C(C(=O)O)C(C(F)(F)F)O2 (stereo not given)
3. CCOC(=O)c1cn2c3c(c(F)c(F)cc3c1=O)CCC2CO (stereo not given)
4. COc1cc(C=CC(=O)N2CCN(c3nc(N)c4cc(OC)c(OC)cc4n3)CC2)cc(OC)c1
5. CN(C)CCc1[nH]c2ccccc2c1CSc1nccn1C
6. CCCCCCCCc1ccc(OCC(=O)Cn2ccc3ccccc32)cc1
7. CC(=O)c1cc(-c2ccc(C(F)(F)F)cc2)oc1C
8. C#CCOc1cc(-n2nc(C)ccc2=O)c(F)cc1C#N

119 to 121 °C
198 to 200 °C
256 to 258 °C
132 to 135 °C
152 to 154 °C
65 °C
87 to 88 °C
180 °C

Would you mind listing melting point for each of the following compounds?
1. O=C(CC1NCCCC1O)Cn1cnc2cc(Br)c(Cl)cc2c1=O (stereo not given)
2. C=C(COc1ccc(C(=O)CCC(=O)O)cc1F)COc1ccc(C(C)=O)c(O)c1CCC
3. Cc1ccccc1N1CCN(Cc2c[nH]c3ncccc23)CC1
4. COC(=O)CCCc1cc2cc(Cl)ccc2n1S(=O)(=O)c1ccc(N2CCOCC2)nc1
5. CC1CCN(C(=O)[C@H](CCCCNc2ccccn2)NS(=O)(=O)c2ccc3ccccc3c2)CC1
6. CCc1cc2c(cc1F)c(S(C)(=O)=O)c(-c1ccc(S(=O)(=O)NC(C)(C)C)cn1)n2-c1ncccn1
7. O=C(c1ccc(-c2ccccc2)s1)c1ccc(Br)cc1Cl

["205 °C", "132 to 134 °C", "174 to 176 °C", "130 to 132 °C", "127 to 129 °C", "244 to 248 °C", "132 to 134 °C"]
